Test system: HepG2
Assay: cytotoxicity call (relative viability < 0.9)
Conditions: 10 µM
The campaign covered roughly 39,000 compounds. About 3,300 (8.5%) were called active. Shown is part of a subset that was picked to be rich in actives.
Outcome codes: active, inactive

| molecule | experimental-target | discrete-label |
| --- | --- | --- |
| COc1ccc(NC(=O)N(C)C[C@H]2OCCCC[C@@H](C)Oc3ccc(NS(=O)(=O)c4ccccc4)cc3C(=O)N([C@@H](C)CO)C[C@H]2C)cc1 | HepG2 | inactive |
| C[C@@H]1CN([C@H](C)CO)C(=O)c2cc(NC(=O)C3CCCCC3)ccc2O[C@@H](C)CCCCO[C@@H]1CN(C)Cc1ccc(C(F)(F)F)cc1 | HepG2 | inactive |
| C[C@@H]1CCCCO[C@H](CN(C)Cc2ccc(C(F)(F)F)cc2)[C@H](C)CN([C@@H](C)CO)C(=O)c2cc(NC(=O)C3CCCCC3)ccc2O1 | HepG2 | active |
| O=C(O)c1cc(=O)c2ccccc2o1 | HepG2 | inactive |
| COc1cccc(-c2ccc3c(c2)O[C@@H](CN(C)C(=O)C2CC2)[C@@H](C)CN([C@H](C)CO)S3(=O)=O)c1 | HepG2 | inactive |
| Cc1ccc(S(=O)(=O)Nc2ccc3c(c2)C(=O)N([C@@H](C)CO)C[C@@H](C)[C@@H](CN(C)C(=O)NC(C)C)O3)cc1 | HepG2 | inactive |
| C[C@@H]1CN([C@@H](C)CO)C(=O)c2cc(NC(=O)C3CCCCC3)ccc2O[C@@H](C)CCCCO[C@@H]1CN(C)Cc1ccc(C(F)(F)F)cc1 | HepG2 | inactive |
| CC(=O)CC(c1ccccc1)c1c(O)c2ccccc2oc1=O (stereo not drawn) | HepG2 | active |
